Target: T1, full-length mouse CD70 with C-terminal V5 tag (mouse, UniProt O55237 1-195)
T1 construct: On transfected CHO cells; also called murine CD70
T1 sequence: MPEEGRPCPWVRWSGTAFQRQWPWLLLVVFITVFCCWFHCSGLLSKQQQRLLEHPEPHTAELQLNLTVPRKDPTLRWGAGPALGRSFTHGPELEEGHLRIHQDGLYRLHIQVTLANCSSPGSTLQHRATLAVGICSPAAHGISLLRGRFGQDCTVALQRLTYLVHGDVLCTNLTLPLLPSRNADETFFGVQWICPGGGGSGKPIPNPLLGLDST
Assay: FACS on CHO cells, periplasmic scFv
MEASURED_METRIC: binding result

Sample records with binding result:
BINDER	binding result
CD70-67 (scFv, As m32) scFv: EVQLLESGGGLVQPGGSLRLSCAASGFTFSSYAMSWVRQAPGKCLEWVSVISDSGGITDFADSVKGRFIISRDNSRNTLYLQMNSLRAEDTAVYFCARHDYSNYFFFDYWGQGTLVTVSSGGGGSGGGGSGGGGSDIQMTQSPSSLSASVGDRVTITCRASQDISNYLNWYQQKSGKAPELLIYAASSLQSGVPSRFSGSGSGTDFTLTISSLQPEDFATYYCQQSYISPPTFGCGTKVEIK	no binding
CD70-13 (scFv) scFv: EVQLLESGGGLVQPGGSLRLSCAASGFTFSSYAMSWVRQAPGKGLEWVSVISGSGGRPNYADSVKGRFTISRDNSKNTLYLQMNSLRDEDTAVYYCAKVDYSNYLFFDYWGQGTLVTVSSGGGGSGGGGSGGGGSEIVLTQSPGTLSLSPGEGATLSCRAGQSVRSSYLGWYQQKPGQAPRLLIYGASSRATGIPDRFSGSGSGTDFTLTISRLEPEDFAVYYCQQYGYSPPTFGGGTKLEIK	no binding
CD70-57 (scFv) scFv: QVQLVESGGGVVQPGRSLRLSCAASGFTFSSYGMHWVRQAPGKGLEWVAVIWYDGSSEYYADSVKGRFTISRDNSKNTLYLQMNSLRAEDTAVYYCARDNSYNYYGMDVWGQGTTVTVSSGGGGSGGGGSGGGGSQSVLTQPPSVSGAPGQRVTISCTGSSSNIGAAYDVHWYQQFPGTAPKLLIYVNSHRPPGVPDRFSGSKSGTSASLAITGLQAEDEADYYCLSYDNSLSGSVFGGGTKLTVL	no binding
CD70-73 (scFv, As m32) scFv: EVQLVESGGGLVKPGGSLRLSCAASGFTFSSYSMNWVRQAPGKCLEWVSYISSSGGYIYYADSVKGRFTISRDNAKNSLYLQMNSLRAEDAAVYYCSRGDYSNYAYFDYWGQGTLVTVSSGGGGSGGGGSGGGGSDIQMTQSPSSLSASVGDRVTITCRASQGISNYLAWYQQKPGKVPKLLIYAASTLQSGVPSRFSGSGSGTDFTLTISSLQAEDVAVYYCQQYYSTPLTFGCGTKVEIK	no binding
CD70-58 (scFv) scFv: QVQLQESGPGLVKPSQTLSLTCTVSGGSISSSSYYWGWIRQPPGKGLEWIGSIYHSGGTYFNPSLKSRVTISVDTSKNQFSLKLSSVTAADTAVYYCARHYEILTGYYPDVFDIWGQGTMVTVSSGGGGSGGGGSGGGGSDIQMTQSPSSLSASVGDRVTITCRASQSISSYLNWYQQKPGKAPKLLIYAASNLQSGVSSRFSGSGSGTDFTLTISSLQPEDFATYYCQQSFSSPRTFGQGTKVEIK	no binding
CD70-29 (scFv, As m32) scFv: EVQLLESGGGLVQPGGSLRLSCAASGFNFASYAMSWVRQAPGKGLEWVSVISGSGGRTHYADSGKGRFTISRDNSKNTLYLQMNSLRAEDTAVYYCAKHDYSNYPYFDYWGQGTLVTVSSGGGGSGGGGSGGGGSEIVLTQSPGTLSLSPGERATLSCRASQSVRSSYLAWYQQKPGQAPRLLIFGASSRATGIPDRFSGSESGTDFTLTINRLEPEDFAVYYCEQYGNSPPTFGGGTKVEIK	no binding

Task: Quick one: binding result of CD70-66 (scFv, As m32) scFv: EVQLLESGGGLVQPGGSLRLSCAASGFTFSSYAMSWVRQAPGQCLEWVSAISGSGGRTYYADSVKGRFTISRDNSKNTLYLQMNSLRAEDTAVYYCAKHDYSNYPYFDYWGQGTLVTVSSGGGGSGGGGSGGGGSEIVLTQSPGTLSLSPGERATLSCRASQSVRGSYLAWYQQKPGQAPRLLIYSASSRATGIPDRFSGSGSGTDFTLTISRLEPEDFAVYYCQQYGDSPFTFGCGTKVEIK ?
Result: no binding
